# system_under_test: T1, IL4R-Fc-biotin (UniProt P24394 26-232, biotinylated (sites not given))
# T1 construct: also called IL4R-Fc protein (Sinobiological Co., Ltd., 10402-H02H); not shown: Fc part
# T1 sequence (looked up): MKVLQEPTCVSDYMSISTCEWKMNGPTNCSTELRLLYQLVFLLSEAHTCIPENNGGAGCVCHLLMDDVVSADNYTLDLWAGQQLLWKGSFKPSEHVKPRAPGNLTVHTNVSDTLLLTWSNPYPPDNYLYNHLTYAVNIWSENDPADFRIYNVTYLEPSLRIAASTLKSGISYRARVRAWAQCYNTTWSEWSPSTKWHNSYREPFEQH
# test_details: competition ELISA: IL4 coated, IL4R-Fc-biotin (0.4 µg/ml) with antibody dilutions
measurement_label: IC50
The reply should consist of the numeric value with the unit placed after it.

# binder, IC50
rows = [
    ("IL4R-BA030-IgG4 (antibody, V domains shown, also called IL4RQ14-BA030) VH: QVQLVESGGGVVQPGRSLRLSCAASGFTFSSYAIHWVRQAPGKGLEWVAVISYDGSKKYYADSVKGRFTISRDNSKNTLYLQMNSLRAEDTAVYYCAREYYYGMDVWGQGTTVTVSS VL: DIVMTQSPSTLSASVGDRVTITCRASQSISNWLAWYQQKPGKAPKRLIYKASSLESGVPSRFSGSGSGTEFTLTISSLQPDDFATYYCQQYNRYFTFGQGTKLEIKR", "0.343 µg/mL"),
]

Measured IC50, BA1301 (antibody, IgG4, V domains shown, also called IL4RQ29-BA1301) VH: QVQLVESGGGVVQPGRSLRLSCAASGLTFSSYAMHWVRQAPGKGLEWVAVISYDGSNKYYADSVKGRFTISRDNSKNTLYLQMNSLRAEDTAVYYCARGFGYFDLWGRGTLVTVSS VL: DIQMTQSPSTLSASVGDRVTITCRASQSITRRLAWYQQKPGKAPKLLIYKASSLESGVPSRFSGSGSGTEFTLTISSLQPDDFATYYCQQYVSFSRTFGQGTKVEIKR : 0.592 µg/mL

Measured IC50, IL4R-BA167-IgG4 (antibody, V domains shown, also called IL4RQ6-BA167) VH: QVQLVESGGGVVQPGRSLRLSCAASGFTFSSYAMHWVRQAPGKGLEWVAVISYDGSNKYYADSVKGRFTISRDNSKNTLYLQMNSLRAEDTAVYYCARGLTTVRGVLYWGQGTLVTVSS VL: EIVMTQSPSSLSASLGDRVTITCRASQNIGSRLAWYQQKPGKAPKLLIYKASSLESGVPSRFSGSGSGTEFTLTISSLQPDDFATYYCQQYNSYSWTFGQGTKLEIKR : 0.458 µg/mL
